biological target: HLA-B*15:01; test: IEDB peptide-MHC binding, purified MHC/direct/fluorescence; filed as Kd, often an IC50 or EC50 that approximates it; bounds were set here for any values at or beyond the usual limits of such assays; conditions: source organism: Rickettsia typhi
Value kind: Kd

The sequence APILVVSGI showed Kd equal to ≥ 20 µM

* * *

target: HLA-B*53:01; experiment: IEDB peptide-MHC binding, purified MHC/competitive/radioactivity; filed as Kd, often an IC50 or EC50 that approximates it; bounds were set here for any values at or beyond the usual limits of such assays; settings: source organism: Mammarenavirus lassaense
A collection of sequences and their measured Kd
Give the number; nM is assumed, so skip it.

Given the sequence CPFLFLTVL and test system HLA-B*53:01, the measured Kd is 216

# MPKDGLKVL with HLA-B*53:01: Kd is 2320

* * *

target: HLA-B*44:02; test: IEDB peptide-MHC binding, purified MHC/direct/fluorescence; filed as Kd, often an IC50 or EC50 that approximates it; bounds were set here for any values at or beyond the usual limits of such assays; conditions: source organism: Influenza A virus (A/duck/Guangxi/1586/2004(H5N1))
Value kind: Kd

Reported Kd for REILTKTTV was ≥ 47.8 µM

* * *

target: HLA-A*26:01; experiment: IEDB peptide-MHC binding, purified MHC/direct/fluorescence; filed as Kd, often an IC50 or EC50 that approximates it; bounds were set here for any values at or beyond the usual limits of such assays; conditions: source organism: Pseudomonas aeruginosa UCBPP-PA14
Value kind: Kd

Value of measured Kd for the entry ASDDLEHWQ : ≥ 20 µM

* * *

molecular target: HLA-A*02:12; test: IEDB peptide-MHC binding, purified MHC/competitive/fluorescence; filed as Kd, often an IC50 or EC50 that approximates it; bounds were set here for any values at or beyond the usual limits of such assays; conditions: source organism: Escherichia coli 536
Value kind: Kd

Entry RVGIYFGMK , Kd reported as ≥ 20 µM

* * *

target: HLA-B*27:05; assay: IEDB peptide-MHC binding, purified MHC/direct/fluorescence; filed as Kd, often an IC50 or EC50 that approximates it; bounds were set here for any values at or beyond the usual limits of such assays; settings: source organism: Camelpox virus M-96
Value kind: Kd

So, VMCIQMKYV ? Its Kd was ≥ 20 µM

* * *

molecular target: HLA-A*02:12; assay: IEDB peptide-MHC binding, purified MHC/competitive/fluorescence; filed as Kd, often an IC50 or EC50 that approximates it; bounds were set here for any values at or beyond the usual limits of such assays; conditions: source organism: Entamoeba histolytica HM-1:IMSS
pKd: −log10 of the molar value.
Value kind: pKd

Lab entry: HLA-A*02:12 assay, sequence KTFEWGVFY , pKd = ≤ 4.70

* * *

biological target: HLA-A*31:01; experiment: IEDB peptide-MHC binding, purified MHC/direct/fluorescence; filed as Kd, often an IC50 or EC50 that approximates it; bounds were set here for any values at or beyond the usual limits of such assays; conditions: source organism: Mycobacterium tuberculosis
Value kind: Kd (nM)
Report only the number, with the unit nM understood.

get_value(item= AVFPRYHPR , readout=Kd) returns 4.7

* * *

target: HLA-B*18:01; assay: IEDB peptide-MHC binding, purified MHC/direct/fluorescence; filed as Kd, often an IC50 or EC50 that approximates it; bounds were set here for any values at or beyond the usual limits of such assays; settings: source organism: Bacillus cereus H3081.97
Value kind: Kd

Short answer on HLA-B*18:01 for YSTVRDLFL , Kd: ≥ 20 µM
